# target or system: human plasma Kallikrein (Homo sapiens)
# Construct: purchased Stratech, UK
# Sequence (P03952 20-638): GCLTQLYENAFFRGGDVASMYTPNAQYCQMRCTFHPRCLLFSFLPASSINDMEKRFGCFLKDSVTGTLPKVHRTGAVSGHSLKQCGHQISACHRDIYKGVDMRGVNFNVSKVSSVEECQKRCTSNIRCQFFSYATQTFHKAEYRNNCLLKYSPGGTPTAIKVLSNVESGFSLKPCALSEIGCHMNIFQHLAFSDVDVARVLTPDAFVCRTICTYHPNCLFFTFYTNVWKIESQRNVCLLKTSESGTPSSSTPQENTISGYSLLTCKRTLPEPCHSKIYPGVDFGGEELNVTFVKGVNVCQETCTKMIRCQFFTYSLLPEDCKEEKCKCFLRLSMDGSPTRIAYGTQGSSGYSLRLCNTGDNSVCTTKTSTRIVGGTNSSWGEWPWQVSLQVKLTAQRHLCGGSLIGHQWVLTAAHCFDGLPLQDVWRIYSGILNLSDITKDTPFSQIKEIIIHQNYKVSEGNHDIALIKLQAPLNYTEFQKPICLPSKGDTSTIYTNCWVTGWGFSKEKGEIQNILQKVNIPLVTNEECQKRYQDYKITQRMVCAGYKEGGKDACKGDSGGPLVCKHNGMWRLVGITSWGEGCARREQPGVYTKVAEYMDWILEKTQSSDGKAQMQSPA
# method description: Functional enzyme inhibition assay with fluorogenic substrate Z-PheArg-AMC, human plasma Kallikrein
# Format: biochemical
Numbered stars: 1 amine (or outer) side, 2 acyl side, 3 side chain; on linkers, the order of the positions; unused ones are H or OH. Bridge positions count the residues as written; N and C are the ends. Square brackets hold non-standard residues; d marks the D form. Peptide text beside a SMILES is read from it. TBMB = c1c(C[*:1])cc(C[*:3])cc1C[*:2]
Please go through the items and note down their reduction in potency/affinity compared to wildtype.
Unit fold implied. Number only.

// sample CC(=O)N[C@H]1CSCc2cc3cc(c2)CSC[C@H](NC(=O)[C@H](CCCNC(=N)N)NC(=O)[C@H](Cc2ccc(O)cc2)NC(=O)[C@@H]2CCCN2C(=O)[C@H](Cc2ccccc2)NC(=O)[C@H](CO)NC1=O)C(=O)N[C@@H](CC(C)C)C(=O)N[C@@H](Cc1c[nH]cn1)C(=O)N[C@@H](CCC(N)=O)C(=O)N[C@H](CC(=O)O)C(=O)N[C@@H](CC(C)C)C(=O)N[C@H](C(N)=O)CSC3 [Ac-(06-34-18) Phe2 Tyr4 D-Asp9] (Ac-CSFPYRCLHQ[dD]LC-NH2; linker 1-7-13 via TBMB) , its reduction in potency/affinity compared to wildtype was 9

# molecule CC(=O)N[C@H]1CSCc2cc3cc(c2)CSC[C@H](NC(=O)[C@H](CCCNC(=N)N)NC(=O)[C@H](Cc2ccc(O)cc2)NC(=O)[C@@H]2CCCN2C(=O)[C@H](Cc2ccccc2)NC(=O)[C@H](CO)NC1=O)C(=O)N[C@@H](CC(C)C)C(=O)N[C@@H](C)C(=O)N[C@@H](CCC(N)=O)C(=O)N[C@@H](CC(=O)O)C(=O)N[C@@H](CC(C)C)C(=O)N[C@H](C(N)=O)CSC3 [Ac-(06-34-18) Phe2 Tyr4 Ala7] (Ac-CSFPYRCLAQDLC-NH2; linker 1-7-13 via TBMB) ; its reduction in potency/affinity compared to wildtype = 56

Form: molecule = "CC(=O)N[C@H]1CSCc2cc3cc(c2)CSC[C@H](NC(=O)[C@H](CCCNC(=N)N)N(C)C(=O)[C@H](C)NC(=O)[C@@H]2CCCN2C(=O)[C@H](Cc2c[nH]c4ccccc24)NC(=O)[C@H](CO)NC1=O)C(=O)N[C@@H](CC(C)C)C(=O)N[C@@H](Cc1c[nH]cn1)C(=O)N[C@@H](CCC(N)=O)C(=O)N[C@@H](CC(=O)O)C(=O)N[C@@H](CC(C)C)C(=O)N[C@H](C(N)=O)CSC3" ; reduction in potency/affinity compared to wildtype = 20
